Origin of measurements: ChEMBL document CHEMBL1145814

# System: Human immunodeficiency virus 1
# Run description: Effective concentration of compound required to protect human T-lymphocytic cells against the cytopathogenicity of HIV-1
# Format: functional, organism-based
# Settings: Human immunodeficiency virus 1
Measured property: log10 EC50 (log10 of the value in µM)
Values are log10 of EC50 in µM.

Prompt line: Return reported log10 EC50; argument: CCCCc1ccc(CNCc2c(O)cc3c(c2O)-c2cc(ccc2O)C2NC(=O)C4NC(=O)C5NC(=O)C(Cc6ccc(c(Cl)c6)Oc6cc4cc(c6O)Oc4ccc(cc4Cl)C(O)C(NC2=O)C(=O)N[C@H]3C(=O)O)NC(=O)C(NC(=O)OC(C)(C)C)c2ccc(O)c(c2)Oc2cc(O)cc5c2)cc1 (stereo partly specified)
Response line: 1.30

Prompt line: And CCCCCCCCCCCCCCCCCCNCc1c(O)cc2c(c1O)-c1cc(ccc1O)C1NC(=O)C3NC(=O)C4NC(=O)C(Cc5ccc(c(Cl)c5)Oc5cc3cc(c5O)Oc3ccc(cc3Cl)C(O)C(NC1=O)C(=O)N[C@H]2C(=O)O)NC(=O)C(N)c1ccc(O)c(c1)Oc1cc(O)cc4c1 (stereo partly specified) ?
Response line: 0.65

Prompt line: And CCCCc1ccc(CN2CCN(Cc3c(O)cc4c(c3O)-c3cc(ccc3O)C3NC(=O)C5NC(=O)C6NC(=O)C(Cc7ccc(cc7)Oc7cc5cc(c7OC5OC(C(=O)O)C(O)C(O)C5N)Oc5ccc(cc5Cl)C(O)C(NC3=O)C(=O)N[C@H]4C(=O)O)NC(=O)C(NC)c3ccc(O)c(c3)Oc3cc(O)c(Cl)c6c3)CC2)cc1 (stereo partly specified) ?
Response line: 1.30

Prompt line: And NC1C(=O)NC2Cc3ccc(c(Cl)c3)Oc3cc4cc(c3O)Oc3ccc(cc3Cl)C(O)C3NC(=O)C(NC(=O)C4NC(=O)C(NC2=O)c2cc(O)cc(c2)Oc2cc1ccc2O)c1ccc(O)c(c1)-c1c(O)cc(O)cc1[C@H](C(=O)O)NC3=O (stereo partly specified) ?
Response line: 1.23

Prompt line: And O=C(NC1C(=O)NC2Cc3ccc(c(Cl)c3)Oc3cc4cc(c3O)Oc3ccc(cc3Cl)C(O)C3NC(=O)C(NC(=O)C4NC(=O)C(NC2=O)c2cc(O)cc(c2)Oc2cc1ccc2O)c1ccc(O)c(c1)-c1c(O)cc(O)cc1[C@H](C(=O)O)NC3=O)OCc1ccccc1 (stereo partly specified) ?
Response line: 1.08

Prompt line: And CC(C)(C)OC(=O)NC1C(=O)NC2Cc3ccc(c(Cl)c3)Oc3cc4cc(c3O)Oc3ccc(cc3Cl)C(O)C3NC(=O)C(NC(=O)C4NC(=O)C(NC2=O)c2cc(O)cc(c2)Oc2cc1ccc2O)c1ccc(O)c(c1)-c1c(O)cc(O)cc1[C@H](C(=O)O)NC3=O (stereo partly specified) ?
Response line: 1.11

Prompt line: And CCCCc1ccc(CNCc2c(O)cc3c(c2O)-c2cc(ccc2O)C2NC(=O)C4NC(=O)C5NC(=O)C(Cc6ccc(c(Cl)c6)Oc6cc4cc(c6O)Oc4ccc(cc4Cl)C(O)C(NC2=O)C(=O)N[C@H]3C(=O)NC)NC(=O)C(N)c2ccc(O)c(c2)Oc2cc(O)cc5c2)cc1 (stereo partly specified) ?
Response line: 0.99

Prompt line: And CN[C@@H](CC(C)C)C(=O)NC1C(=O)N[C@@H](CC(N)=O)C(=O)NC2C(=O)NC3C(=O)NC(C(=O)N[C@@H](C(=O)O)c4cc(O)cc(O)c4-c4cc3ccc4O)C(O)c3ccc(cc3)Oc3cc2cc(c3O)Oc2ccc(cc2Cl)C1O (stereo partly specified) ?
Response line: 1.70

* * *

# Species on record: Mus musculus
# Run description: Minimal inhibitory concentration required to cause a microscopic detectable alteration of C3H/3T3 embryo murine fibroblast cell morphology
# Type: functional
Measured property: MIC

Prompt line: Return reported MIC; argument: CN[C@H](CC(C)C)C(=O)N[C@H]1C(=O)N[C@@H](CC(N)=O)C(=O)N[C@H]2C(=O)N[C@H]3C(=O)N[C@H](C(=O)N[C@H](C(=O)NCc4ccc(-c5ccc(Cl)cc5)cc4)c4cc(O)cc(O)c4-c4cc3ccc4O)[C@H](O)c3ccc(c(Cl)c3)Oc3cc2cc(c3O[C@@H]2O[C@H](CO)[C@@H](O)[C@H](O)[C@H]2O[C@H]2C[C@](C)(N)C(O)[C@H](C)O2)Oc2ccc(cc2Cl)[C@H]1O (some centres not stated)
Response line: 20 µM

Prompt line: And CNC1C(=O)NC2Cc3ccc(cc3)Oc3cc4cc(c3O)Oc3ccc(cc3Cl)C(O)C3NC(=O)C(NC(=O)C4NC(=O)C(NC2=O)c2cc(cc(O)c2Cl)Oc2cc1ccc2O)c1ccc(O)c(c1)-c1c(O)cc(O)cc1[C@H](C(=O)O)NC3=O (some centres not stated) ?
Response line: > 100 µM

Prompt line: And CCCCc1ccc(CN2CCN(Cc3c(O)cc4c(c3O)-c3cc(ccc3O)C3NC(=O)C5NC(=O)C6NC(=O)C(Cc7ccc(c(Cl)c7)Oc7cc5cc(c7O)Oc5ccc(cc5Cl)C(O)C(NC3=O)C(=O)N[C@H]4C(=O)NCCCN(C)C)NC(=O)C(N)c3ccc(O)c(c3)Oc3cc(O)cc6c3)CC2)cc1 (some centres not stated) ?
Response line: 20 µM

Prompt line: And CNC(=O)[C@@H]1NC(=O)C2NC(=O)C(NC(=O)C3NC(=O)C(CC(N)=O)NC(=O)C(N)C(O)c4ccc(c(Cl)c4)Oc4cc3cc(c4O)Oc3ccc(cc3)C2O)c2ccc(O)c(c2)-c2c1cc(O)c(CNC1C3CC4CC(C3)CC1C4)c2O (some centres not stated) ?
Response line: > 100 µM

Prompt line: And CNC(=O)[C@@H]1NC(=O)C2NC(=O)C(NC(=O)C3NC(=O)C4NC(=O)C(NC(=O)C(N)c5ccc(O)c(c5)Oc5cc(O)cc4c5)C(O)c4ccc(c(Cl)c4)Oc4cc3cc(c4O[C@@H]3O[C@@H](CO)[C@@H](O)[C@H](O)[C@@H]3NC(=O)CCCCCCC(C)C)Oc3ccc(cc3Cl)C2O[C@@H]2O[C@@H](CO)[C@@H](O)[C@H](O)[C@@H]2NC(C)=O)c2ccc(O)c(c2)-c2c(O[C@H]3O[C@H](CO)[C@@H](O)[C@@H](O)[C@@H]3O)cc(O)cc21 (some centres not stated) ?
Response line: > 100 µM

Prompt line: And NC1Cc2ccc(c(Cl)c2)Oc2cc3cc(c2O)Oc2ccc(cc2Cl)C(O)C2NC(=O)C(NC(=O)C3NC(=O)C(c3cc(O)cc(Oc4cc(C5NC(=S)N(c6ccccc6)C5=O)ccc4O)c3)NC1=O)c1ccc(O)c(c1)-c1c(O)cc(O)cc1[C@H](C(=O)O)NC2=O (some centres not stated) ?
Response line: > 100 µM

Prompt line: And O=CC(=O)c1[nH]c2ccccc2c1NC1C(=O)NC2Cc3ccc(c(Cl)c3)Oc3cc4cc(c3O)Oc3ccc(cc3Cl)C(O)C3NC(=O)C(NC(=O)C4NC(=O)C(NC2=O)c2cc(O)cc(c2)Oc2cc1ccc2O)c1ccc(O)c(c1)-c1c(O)cc(O)cc1[C@H](C(=O)O)NC3=O (some centres not stated) ?
Response line: > 100 µM

Prompt line: And NC1C(=O)NC2Cc3ccc(c(Cl)c3)Oc3cc4cc(c3O)Oc3ccc(cc3Cl)C(O)C3NC(=O)C(NC(=O)C4NC(=O)C(NC2=O)c2cc(O)cc(c2)Oc2cc1ccc2O)c1ccc(O)c(c1)-c1c(O)cc(O)cc1[C@H](C(=O)NC1C2CC4CC(C2)CC1C4)NC3=O (some centres not stated) ?
Response line: > 100 µM

Prompt line: And CN[C@H](CC(C)C)C(=O)N[C@H]1C(=O)N[C@@H](CC(N)=O)C(=O)N[C@H]2C(=O)N[C@H]3C(=O)N[C@H](C(=O)N[C@H](C(=O)O)c4cc(O)cc(O)c4-c4cc3ccc4O)[C@H](O)c3ccc(c(Cl)c3)Oc3cc2cc(c3O[C@@H]2O[C@H](CO)[C@@H](O)[C@H](O)[C@H]2O[C@H]2C[C@](C)(N)[C@H](O)[C@H](C)O2)Oc2ccc(cc2Cl)[C@H]1O [VANCOMYCIN] ?
Response line: > 100 µM

Prompt line: And CN[C@@H](CC(C)C)C(=O)NC1C(=O)N[C@@H](CC(N)=O)C(=O)NC2C(=O)NC3C(=O)NC(C(=O)N[C@@H](C(=O)O)c4cc(O)cc(O)c4-c4cc3ccc4O)C(O)c3ccc(c(Cl)c3)Oc3cc2cc(c3O)Oc2ccc(cc2Cl)C1O (some centres not stated) ?
Response line: > 100 µM

Prompt line: And O=C1NC2C(=O)NC3C(=O)NC4C(=O)NC(C(=O)N[C@@H](C(=O)O)c5cc(O)cc(O)c5-c5cc4ccc5O)C(O)c4ccc(c(Cl)c4)Oc4cc3cc(c4O)Oc3ccc(cc3Cl)CC1NC(=O)C(NC(=O)C13CC4CC(CC(C4)C1)C3)c1ccc(O)c(c1)Oc1cc(O)cc2c1 (some centres not stated) ?
Response line: 100 µM

Prompt line: And COC(=O)[C@H]1NC(=O)C2NC(=O)C(NC(=O)[C@@H]3NC(=O)[C@H]4NC(=O)[C@H](NC(=O)[C@H](N)c5ccc(O)c(c5)Oc5cc4cc(O)c5C)[C@H](O)c4ccc(cc4)Oc4cc3cc(c4OC3OC(CO[C@H]4O[C@H](C)[C@@H](O)[C@@H](O)[C@@H]4O)C(O)C(O)C3OC3OC(CO)C(O)C(O)C3OC3OCC(O)C(O)C3O)Oc3ccc(cc3)[C@H]2O[C@@H]2C[C@@H](N)[C@@H](O)[C@@H](C)O2)c2ccc(O)c(c2)-c2c(O[C@@H]3O[C@H](CO)[C@@H](O)[C@@H](O)[C@@H]3O)cc(O)cc21 (some centres not stated) ?
Response line: > 100 µM
